target.of.assay: C-C chemokine receptor type 2 (Homo sapiens, UniProt P41597)
Sequence (P41597 whole entry): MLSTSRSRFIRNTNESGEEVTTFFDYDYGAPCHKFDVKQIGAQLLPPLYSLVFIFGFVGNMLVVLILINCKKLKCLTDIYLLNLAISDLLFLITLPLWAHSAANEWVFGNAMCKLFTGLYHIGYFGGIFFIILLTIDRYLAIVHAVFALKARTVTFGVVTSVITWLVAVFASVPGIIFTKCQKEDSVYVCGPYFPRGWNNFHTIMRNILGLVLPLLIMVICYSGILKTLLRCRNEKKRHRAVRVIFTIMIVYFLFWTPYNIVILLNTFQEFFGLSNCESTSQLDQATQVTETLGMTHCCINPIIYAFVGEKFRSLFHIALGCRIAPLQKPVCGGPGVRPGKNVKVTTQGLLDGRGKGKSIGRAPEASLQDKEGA
protocol.text: Concentration required to inhibit [125I]MCP-1 binding to Chemokine receptor 2B
pIC50: −log10 of the molar value.
Hi, to clarify the labels: 1 (yes) covers pIC50 from 5 upward, 0 (no) covers anything below 5.

>>> group("O=C(CCNC(=O)c1ccccc1)NC1CCN(Cc2ccc(Cl)cc2)C1 (configuration not stated)")
"0 (no)"
>>> group("Cc1cccc(C(=O)NCC(=O)NCC2CCCN2Cc2ccc(Cl)cc2)c1 (configuration not stated)")
"0 (no)"
>>> group("O=C(CNC(=O)c1cccc(C(F)(F)F)c1)NC1CCCN(Cc2ccc(Cl)cc2)C1 (configuration not stated)")
"1 (yes)"
>>> group("O=C(CCNC(=O)c1ccccc1)NCC1CCCN1Cc1ccc(Cl)cc1 (configuration not stated)")
"0 (no)"
>>> group("O=C(CNC(=O)c1cccc(C(F)(F)F)c1)N[C@@H]1CCN(Cc2ccc(Cl)cc2)C1")
"1 (yes)"
>>> group("Cc1csc(C(=O)NNC(=O)CN2CCCC2CNCCC(c2ccccc2)c2ccccc2)c1 (configuration not stated)")
"0 (no)"
>>> group("O=C(CNC(=O)c1cccc(C(F)(F)F)c1)NC[C@@H]1CCCN1Cc1ccc(Cl)cc1")
"1 (yes)"
